All figures here come from patent US20250237662A1.

pKd: recorded values
- tested-on: humanized therapeutic monoclonal antibody IgG1 (hIgG1)
- procedure-summary: SPR (Biacore T200), mAb captured by anti-rabbit mAb on CM5, antigen 80-0 nM, 1:1 fit
Hey, just a heads up that pKd is the negative log base 10 of the concentration in molar.

These solved cases illustrate the format of a correct answer.
INSERT INTO results (binder, measurement_type, observed_measurement) VALUES
  ('rabbit anti-human IgG monoclonal antibody clone 19B1 (antibody, V domains shown) VH: QEQLVESGGGLVQPEGSLTLTCTASGFSFSDSYYMCWVRQAPGKGLEWIACIYGGTITNTYYASWAKGRFTISKTSSTTVTLQMTSLTAADTATYFCARDLGAAGDAYNLWGPGTLVTVSS VL: ASDMTQTPASVSEPVGGTVTIKCQASENIYSSLAWYQQKPGQPPKLLIYDASNLASGVPSRFSGSGSGTEFTLTISDLECADAATYYCQCTYRSSSSSYAFGGGTEVVVKG', 'pKd', 9.62),
  ('rabbit anti-human IgG monoclonal antibody clone 11G5 (antibody, V domains shown) VH: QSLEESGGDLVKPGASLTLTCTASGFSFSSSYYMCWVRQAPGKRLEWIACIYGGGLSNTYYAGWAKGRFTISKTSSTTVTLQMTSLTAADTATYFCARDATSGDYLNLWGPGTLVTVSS VL: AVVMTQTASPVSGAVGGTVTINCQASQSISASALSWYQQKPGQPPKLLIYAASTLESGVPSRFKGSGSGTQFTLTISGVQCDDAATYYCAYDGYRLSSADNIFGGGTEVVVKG', 'pKd', 9.73);

Form field: reported pKd of rabbit anti-human IgG monoclonal antibody clone 9E6 (antibody, V domains shown) VH: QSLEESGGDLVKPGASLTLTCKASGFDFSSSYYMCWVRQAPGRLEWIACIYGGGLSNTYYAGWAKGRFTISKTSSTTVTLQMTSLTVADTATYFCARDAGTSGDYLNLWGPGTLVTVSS VL: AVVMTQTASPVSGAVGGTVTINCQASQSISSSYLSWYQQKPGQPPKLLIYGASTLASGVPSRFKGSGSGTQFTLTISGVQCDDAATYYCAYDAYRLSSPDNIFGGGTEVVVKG
9.37
